Recorded response vs control in vivo at 30 mg/kg by entry
tested on: Leukosis cells of P-388 mouse; assay: Antitumor Effect Test (P-388 leukemia grafted into the abdomen of mice, ratio of survival days T/C); format: in vivo; conditions: Mus musculus, P388, ip, 120 h, 30 mg/kg, dosed into the abdomen successively for 5 days; P-388 in CDF1 or BDF1 mouse
recorded-endpoint: response vs control in vivo at 30 mg/kg

INSERT INTO results (smiles_notation, recorded_endpoint, obs_value) VALUES
  ('CN(C)CCCNC(=O)NCCCCCCNC(=O)n1cc(F)c(=O)[nH]c1=O', 'response vs control in vivo at 30 mg/kg', '142%'),
  ('O=C(NCCCCCCNC(=O)n1cc(F)c(=O)[nH]c1=O)NNC(=O)c1ccncc1', 'response vs control in vivo at 30 mg/kg', '109%'),
  ('O=C(Nc1ccc[n+]([O-])c1)n1cc(F)c(=O)[nH]c1=O', 'response vs control in vivo at 30 mg/kg', '149%');

----------
Test system: Leukosis cells of P-388 mouse
Assay: Antitumor Effect Test (P-388 leukemia grafted into the abdomen of mice, ratio of survival days T/C)
Assay type: in vivo
Conditions: Mus musculus, P388, ip, 120 h, 30 mg/kg, dosed into the abdomen successively for 5 days; P-388 in CDF1 or BDF1 mouse
Excerpt: [Antitumor Effect Test] Leukosis cells of P-388 mouse of 1×10^6 /mouse were grafted into the abdomen of CDF1 or BDF1 mouse, and the fixed quantity of the compound of this invention was successively dosed into the abdomen for 5 days. Each 6 mice per dose level as test groups and 30~33 mice as control groups were used. [formula]
recorded-endpoint: response vs control in vivo at 30 mg/kg (%)

INSERT INTO results (smiles_notation, recorded_endpoint, reading_unit, obs_value) VALUES
  ('O=C(NCCCCCCNC(=O)n1cc(F)c(=O)[nH]c1=O)NNC(=O)c1cccnc1', 'response vs control in vivo at 30 mg/kg', '%', 113),
  ('NS(=O)(=O)c1ccc(NC(=O)NCCCCCCNC(=O)n2cc(F)c(=O)[nH]c2=O)cc1', 'response vs control in vivo at 30 mg/kg', '%', 95),
  ('O=C(Nc1c[nH]c2ccccc12)n1cc(F)c(=O)[nH]c1=O', 'response vs control in vivo at 30 mg/kg', '%', 123),
  ('O=C(NCCC[n+]1ccccc1)n1cc(F)c(=O)[nH]c1=O', 'response vs control in vivo at 30 mg/kg', '%', 130),
  ('O=C(NCC[n+]1ccccc1)n1cc(F)c(=O)[nH]c1=O', 'response vs control in vivo at 30 mg/kg', '%', 171),
  ('O=C(NCNC(=O)n1cc(F)c(=O)[nH]c1=O)c1ccccc1', 'response vs control in vivo at 30 mg/kg', '%', 117),
  ('O=C(NCc1c[nH]c2ccccc12)n1cc(F)c(=O)[nH]c1=O', 'response vs control in vivo at 30 mg/kg', '%', 117),
  ('O=C(NCCCCC[n+]1ccccc1)n1cc(F)c(=O)[nH]c1=O', 'response vs control in vivo at 30 mg/kg', '%', 120),
  ('O=C(Nc1cccs1)n1cc(F)c(=O)[nH]c1=O', 'response vs control in vivo at 30 mg/kg', '%', 129);
